Tgt: mouse semaphorin 3A (Sema3A) (Mus musculus, UniProt O08665)
Sequence (O08665 21-772): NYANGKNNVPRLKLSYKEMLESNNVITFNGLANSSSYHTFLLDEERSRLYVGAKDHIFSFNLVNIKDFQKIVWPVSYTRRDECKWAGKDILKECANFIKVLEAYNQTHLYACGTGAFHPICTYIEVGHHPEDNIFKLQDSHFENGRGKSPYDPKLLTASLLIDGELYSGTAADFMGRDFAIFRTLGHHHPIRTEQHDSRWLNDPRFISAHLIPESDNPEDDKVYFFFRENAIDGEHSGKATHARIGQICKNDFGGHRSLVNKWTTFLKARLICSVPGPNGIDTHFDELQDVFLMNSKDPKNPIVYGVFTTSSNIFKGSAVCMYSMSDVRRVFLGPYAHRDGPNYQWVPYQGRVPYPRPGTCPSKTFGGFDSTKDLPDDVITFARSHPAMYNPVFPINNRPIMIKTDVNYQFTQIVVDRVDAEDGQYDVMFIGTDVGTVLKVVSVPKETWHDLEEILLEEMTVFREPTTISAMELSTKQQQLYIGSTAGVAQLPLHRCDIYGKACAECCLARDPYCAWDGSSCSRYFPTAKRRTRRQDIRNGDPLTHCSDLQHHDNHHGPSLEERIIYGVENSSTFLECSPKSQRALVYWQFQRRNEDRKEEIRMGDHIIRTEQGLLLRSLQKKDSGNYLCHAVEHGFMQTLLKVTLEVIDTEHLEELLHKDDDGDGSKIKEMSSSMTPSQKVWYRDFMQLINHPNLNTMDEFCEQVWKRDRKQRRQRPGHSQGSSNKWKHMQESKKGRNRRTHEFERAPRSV
Assay Summary: Inhibitory activity for the collapse activity caused by Sema3A (growth cone collapse assay, Test 1)
Type: cell-based
Details: 1 μM test compound; chick embryo dorsal root ganglion; 3 units/mL mouse Sema3A; smaller value = more potent inhibition; read-out: residual ratio (%) of Sema3A activity (collapse assay)
Description: Inhibitory Activity for the Collapse Activity Caused by Sema3A 96 well-plate (SUMITOMO BAKELITE CO., LTD.) which was beforehand coated with polylysine was further coated with laminin (10 μL laminin, at room temperature, for 1 hour). […] The medium was left to stand at room temperature for 15 minutes to make the tissue fragment fixed, and the ratio of the retracted growth cone was measured under a microscope.
Where a name gives a salt, the structure may show the parent alone.
Note to self: remaining activity at 1 µM under 20% means yes (1), ties and anything higher get no (0).

Previously resolved entries follow.
Molecule	Assigned Label
Cc1nc2cc(O)c(O)cn2c(=O)c1-c1coc2cc(O)c(O)c(C(=O)O)c2c1=O [Example 16]	yes (1)
N=C(N)NCCC[C@H](NC(=O)Cn1cc(COC(=O)c2c(O)c(O)cc3occ(-c4cc5cc(O)c(O)cc5oc4=O)c(=O)c23)nn1)C(=O)O [Example 12, trifluoroacetate]	no (0)
Cn1cc(-c2coc3cc(O)c(O)c(C(=O)O)c3c2=O)c(=O)c2cc(O)c(O)cc21 [Example 1]	yes (1)

Lab note: remaining activity at 1 µM threshold 20%. Does this molecule come in strictly under it? Cc1nc2cc(O)c(O)cn2c(=O)c1-c1coc2cc(O)c(O)c(C(=O)OCC(=O)N[C@@H](CCC(=O)O)C(=O)O)c2c1=O [Example 18]
no (0)

Does this molecule meet the criterion remaining activity at 1 µM < 20%? O=C(O)c1c(O)c(O)cc2occ(-c3cc4cc(O)c(O)cc4oc3=O)c(=O)c12 [Example 9]
yes (1)

remaining activity at 1 µM under 20%? Item: Cn1c(=O)c(-c2coc3cc(O)c(O)c(C(=O)OCc4cn(CC(=O)N[C@@H](CCC(=O)O)C(=O)O)nn4)c3c2=O)cc2cc(O)c(O)cc21 [Example 14]
no (0)

---

Measured remaining activity at 3 µM values are reported for all entries that follow.
Tgt: mouse semaphorin 3A (Sema3A) (Mus musculus, UniProt O08665)
Assay Summary: Inhibitory activity for the collapse activity caused by Sema3A (growth cone collapse assay, Test 1)
Format: cell-based
Details: 3 μM test compound; chick embryo dorsal root ganglion; 3 units/mL mouse Sema3A; smaller value = more potent inhibition; read-out: residual ratio (%) of Sema3A activity (collapse assay)
Value expressed in %; do not type the unit.

Cpd Smiles	remaining activity at 3 µM / %
Cc1nc2cc(O)c(O)cn2c(=O)c1-c1coc2cc(O)c(O)c(C(=O)O)c2c1=O	2.2

// field: remaining activity at 3 µM; key: Cn1c(=O)c(-c2coc3cc(O)c(O)c(C(=O)OCc4cn(CC(=O)N[C@@H](CCC(=O)O)C(=O)O)nn4)c3c2=O)cc2cc(O)c(O)cc21 ; value = 6.1

Entry Cc1nc2cc(O)c(O)cn2c(=O)c1-c1coc2cc(O)c(O)c(C(=O)OCC(=O)N[C@@H](CCC(=O)O)C(=O)O)c2c1=O ; remaining activity at 3 µM = 6.7

Measured remaining activity at 3 µM of O=C(O)c1c(O)c(O)cc2occ(-c3cc4cc(O)c(O)cc4oc3=O)c(=O)c12 : 7.3
